Kindly supply the reported protein stability index values for the records listed here.
B1: IKZF1 (parent)
chain: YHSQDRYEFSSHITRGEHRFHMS

# Variants of: B1
# assay name: protein stability index of a GFP-peptide fusion (GPS, HEK-293T) (PSI 1-6); higher = more stable;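 further: lentivirally expressed fusions sorted by FACS into six bins by GFP to DsRed ratio, PSI derived from sequencing read proportions per bin multiplied by bin number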
# assay setup: c terminus: native
Numbers only.

YHSQDQYEFSSHITRGEHRFHMS = 1.9
YHSQDRYEFSSHITRGEHRFHGS = 3.65
YHSQDREEFSSHITRGEHRFHMS = 2.18
YHSQDRYEFSSHITRGEHWFHMS = 2.84
YHSQDRYHFSSHITRGEHRFHMS = 4.13
YHSQDRYEFSSHITRWEHRFHMS = 1.51
YHSQDRYEFSSHDTRGEHRFHMS = 1.52
YHSGDRYEFSSHITRGEHRFHMS = 2.3

Give protein stability index for each of the items listed below.
1. YHSQDPYEFSSHITRGEHRFHMS
2. YHSQDRYEFSSHITSGEHRFHMS
3. YHSQHRYEFSSHITRGEHRFHMS

Reply |
[2.23, 1.55, 2.74]

Give protein stability index for each of the items listed below.
1. YHSQDRYEFSSHITRGEHGFHMS
2. YHSQDRYEFSSHKTRGEHRFHMS
3. YHSQDRYEFSSHITRGRHRFHMS
4. YHSQDRYEFSSHETRGEHRFHMS
5. YHSQDRYEFSSHITRIEHRFHMS

Reply |
1: 1.89; 2: 1.82; 3: 1.94; 4: 1.83; 5: 1.77

Give protein stability index for each of the items listed below.
1. YHSQDRYEFSSHITRGEHRFHHS
2. YHSQDRYEFSSHITRLEHRFHMS
3. YHLQDRYEFSSHITRGEHRFHMS
4. YHSQNRYEFSSHITRGEHRFHMS
5. YHSQDRYEFSSHITRSEHRFHMS

Reply |
[1.66, 1.53, 2.39, 1.84, 1.5]

Give protein stability index for each of the items listed below.
1. YHGQDRYEFSSHITRGEHRFHMS
2. YHSQDRYEFSSHITRGEHRFHES
3. YHSQDRYEFSSHITRGEHPFHMS
4. YHSQDRYEFSSSITRGEHRFHMS
5. YHSQDRYCFSSHITRGEHRFHMS
6. YHSQDRYEFSSHWTRGEHRFHMS

Reply |
1. 2
2. 1.82
3. 1.77
4. 3.03
5. 2.5
6. 1.71

Source: the supplement of paper PMC10567573
